tested on: Salmonella typhimurium Ames mutagenicity, literature compiled; assay: DSSTox (CPDBAS) Carcinogenic Potency Database Salmonella Mutagenicity
Activity calls are given as the source filed them.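 Rule for the calls: active = chemicals rated mutagenic or weakly mutagenic in the Salmonella bacterial test by one literature review, or positive overall by another; inconclusive = no clear call, values can overlap the other calls; inactive = the rest.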
measuredQuantity: outcome

Identify measured outcome associated with Nc1cc([N+](=O)[O-])ccc1C(=O)O
active

Identify measured outcome associated with Nc1ccccc1N
active

Identify measured outcome associated with COc1cc2c(c3oc(=O)c4c(c13)CC[C@H]4O)[C@@H]1C=CO[C@H]1O2
active

---

system: Salmonella typhimurium Ames mutagenicity, literature compiled; assay: DSSTox (CPDBAS) Carcinogenic Potency Database Salmonella Mutagenicity
Activity calls are given as the source filed them.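 Rule for the calls: active = chemicals rated mutagenic or weakly mutagenic in the Salmonella bacterial test by one literature review, or positive overall by another; inconclusive = no clear call, values can overlap the other calls; inactive = the rest.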
Choose the fitting class; nothing outside yes (active), no (inactive) is accepted.

For [Cl-].[Cl-].[Hg+2] , which call appears in the assay record?
no

For COC(=O)[C@H]1[C@H]2C[C@@H]3c4[nH]c5cc(OC)ccc5c4CCN3C[C@H]2C[C@@H](OC(=O)c2cc(OC)c(OC)c(OC)c2)[C@@H]1OC , which call appears in the assay record?
no

For NC(=O)/C(=C\c1ccc([N+](=O)[O-])o1)c1ccco1 , which call appears in the assay record?
yes

Attention now shifts to the item below.
For O=Cc1ccco1 , which call appears in the assay record?
yes

---

system: Salmonella typhimurium Ames mutagenicity, literature compiled; test: DSSTox (CPDBAS) Carcinogenic Potency Database Salmonella Mutagenicity
Active and inactive are the calls of the source.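 How the source made its calls: active means chemicals rated mutagenic or weakly mutagenic in the Salmonella bacterial test by one literature review, or positive overall by another; inconclusive means no clear call, values can overlap the other calls; inactive means the rest.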
Choose the fitting class; nothing outside t (active), f (inactive) is accepted.

For orientation, consider the following solved cases.
For CN(N=O)C(=O)N[C@@H]1[C@@H](O)[C@H](O)[C@@H](CO)O[C@@H]1O , which call appears in the assay record?
t

For COc1c(Cl)c(Cl)c(Cl)c(Cl)c1Cl , which call appears in the assay record?
t

---
For CC(O)CO (stereo not drawn) , which call appears in the assay record?
f

---

test system: Salmonella typhimurium Ames mutagenicity, literature compiled; experiment: DSSTox (CPDBAS) Carcinogenic Potency Database Salmonella Mutagenicity
The source made the active and inactive calls.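 How the source made its calls: active means chemicals rated mutagenic or weakly mutagenic in the Salmonella bacterial test by one literature review, or positive overall by another; inconclusive means no clear call, values can overlap the other calls; inactive means the rest.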
Choose the fitting class; nothing outside active, inactive is accepted.

For orientation, consider the following solved cases.
For CC(=O)Nc1ccc(C(=O)CCl)cc1 , which call appears in the assay record?
active

For Oc1cc2c(cc1O)[C@H]1c3ccc(O)c(O)c3OC[C@@]1(O)C2 , which call appears in the assay record?
inactive

For O=C1O[C@H]([C@H](O)CO)C(O)=C1O , which call appears in the assay record?
inactive

---
For CCCCOC(=O)COc1ccc(Cl)cc1Cl , which call appears in the assay record?
inactive

For NCCS(=O)(=O)O , which call appears in the assay record?
inactive

For Cn1c(N)nc2ncc(-c3ccccc3)cc21 , which call appears in the assay record?
active

For O=C1CCc2ccccc2O1 , which call appears in the assay record?
inactive

---

test system: Salmonella typhimurium Ames mutagenicity, literature compiled; assay: DSSTox (CPDBAS) Carcinogenic Potency Database Salmonella Mutagenicity
Active and inactive are the calls of the source.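 The calls were made as follows: active = chemicals rated mutagenic or weakly mutagenic in the Salmonella bacterial test by one literature review, or positive overall by another; inconclusive = no clear call, values can overlap the other calls; inactive = the rest.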
Choose the fitting class; nothing outside 1 for active, -1 for inactive is accepted.

For CN(C)C(=S)SSC(=S)N(C)C , which call appears in the assay record?
1

For CN(N=O)c1ccccn1 , which call appears in the assay record?
1

For CC1=C(/C=C/C(C)=C/C=C/C(C)=C/C=C/C=C(C)/C=C/C=C(C)/C=C/C2=C(C)CCCC2(C)C)C(C)(C)CCC1 , which call appears in the assay record?
1

For CCCCC(CC)COP(=O)(OCC(CC)CCCC)OCC(CC)CCCC (centres undefined) , which call appears in the assay record?
-1

For O=Cc1ccccc1 , which call appears in the assay record?
-1

For NC(=S)Nc1cccc2ccccc12 , which call appears in the assay record?
1

For CNC(=S)N(C)C , which call appears in the assay record?
-1

For O.O=S(=O)([O-])[O-].[Mn+2] , which call appears in the assay record?
-1

Attention now shifts to the item below.
For CCCN(CCC)N=O , which call appears in the assay record?
1

All figures here come from PubChem BioAssay AID1194.
